The reader will find reported relative viability values listed item by item below.
Test system: SW 900
Assay: relative viability (nuclei count vs DMSO), 5 days (fraction); higher = more cells survive
Details: first compound 0.002 µM
The response must contain the number and no unit.

Use these answered entries as a reference point.
- Compound: "CC(=O)O[C@@]12CO[C@@H]1C[C@H](O)[C@@]1(C)C(=O)[C@H](O)C3=C(C)[C@@H](OC(=O)[C@H](O)[C@@H](NC(=O)OC(C)(C)C)c4ccccc4)C[C@@](O)([C@@H](OC(=O)c4ccccc4)[C@H]21)C3(C)C [Docetaxel] + CC(=O)c1c(C)c2cnc(Nc3ccc(N4CCNCC4)cn3)nc2n(C2CCCC2)c1=O [Palbociclib] (partner 0.5 µM)"
  relative viability: 0.354
- Compound: "CC(=O)O[C@@]12CO[C@@H]1C[C@H](O)[C@@]1(C)C(=O)[C@H](O)C3=C(C)[C@@H](OC(=O)[C@H](O)[C@@H](NC(=O)OC(C)(C)C)c4ccccc4)C[C@@](O)([C@@H](OC(=O)c4ccccc4)[C@H]21)C3(C)C [Docetaxel] + NC(=O)Nc1cc(-c2cccc(F)c2)sc1C(=O)N[C@H]1CCCNC1 [AZD7762] (partner 0.2 µM)"
  relative viability: 0.287
- Compound: "CC(=O)O[C@@]12CO[C@@H]1C[C@H](O)[C@@]1(C)C(=O)[C@H](O)C3=C(C)[C@@H](OC(=O)[C@H](O)[C@@H](NC(=O)OC(C)(C)C)c4ccccc4)C[C@@](O)([C@@H](OC(=O)c4ccccc4)[C@H]21)C3(C)C [Docetaxel] + COc1cc2c(Oc3ccc(NC(=O)C4(C(=O)Nc5ccc(F)cc5)CC4)cc3F)ccnc2cc1OCCCN1CCOCC1 [Foretinib] (partner 0.25 µM)"
  relative viability: 0.249

What does the record list as relative viability for CC(=O)O[C@@]12CO[C@@H]1C[C@H](O)[C@@]1(C)C(=O)[C@H](O)C3=C(C)[C@@H](OC(=O)[C@H](O)[C@@H](NC(=O)OC(C)(C)C)c4ccccc4)C[C@@](O)([C@@H](OC(=O)c4ccccc4)[C@H]21)C3(C)C [Docetaxel] + Cc1cc(Nc2cc(N3CCN(C)CC3)nc(Sc3ccc(NC(=O)C4CC4)cc3)n2)n[nH]1 [Tozasertib] (partner 0.1 µM) ?
0.259
